Exercise: for every item that follows, state its recorded IC (2-fold clotting time).
# testedTarget: human α-thrombin (Homo sapiens, UniProt P00734)
# Construct: purified human α-thrombin
# assayMethodText: Concentration required for doubling thrombin clotting time (clotting time assay in human plasma)
# Assay type: biochemical
# measurementConditions: Table II; human citrated plasma, 10 U/ml human thrombin; read-out: DTT (concentration of drug which caused a doubling of the thrombin clotting time)
Where a name gives a salt, the structure may show the parent alone.
Note: unit µM is implicit; provide only the numeric part.

### Prompt Look up IC (2-fold clotting time): Cc1ccc(S(=O)(=O)NC(CCCCNC(=N)C(=N)N)C(=O)N2CCCCC2)cc1 (stereo not shown) [Compound 7k, dihydrochloride]
### Response 150

### Prompt Look up IC (2-fold clotting time): CN(C)c1cccc2c(S(=O)(=O)NC(CCCNC(=N)C(=N)N)C(=O)N3CCCCCC3)cccc12 (stereo not shown) [Compound 7g, trihydrochloride hydrate]
### Response 1.8

### Prompt Look up IC (2-fold clotting time): CN(C)c1cccc2c(S(=O)(=O)NC(CCCNC(=N)C(=N)N)C(=O)N3CCOCC3)cccc12 (stereo not shown) [Compound 7e, trihydrochloride hydrate]
### Response 4

* * *

# testedTarget: human α-thrombin (Homo sapiens, UniProt P00734)
# Construct: purified human α-thrombin
# assayMethodText: Enzyme assay for the inhibition of thrombin (s-2238 chromogenic substrate)
# Format: biochemical
# measurementConditions: Table I; determined graphically from Dixon plots; room temperature, pH 7.4, substrate s-2238; read-out: Ki
pKi: −log10 of the molar value. Counter-ions that a name gives are not always drawn.
Decision: pKi >= 6 yields TRUE, all other cases yield FALSE.

### Prompt Please tell me: is the molecule Cc1ccc(S(=O)(=O)NC(CCCCNC(=N)C(=N)N)C(=O)N2CCCCC2)cc1 (stereo not shown) [Compound 7k, dihydrochloride] at or over 6 in terms of pKi?
### Response FALSE

### Prompt Please tell me: is the molecule CCCCN(CC(=O)OCC)C(=O)C(CCCNC(=N)C(=N)N)NS(=O)(=O)c1cccc2c(N(C)C)cccc12 (stereo not shown) [Compound 7f, trihydrochloride hydrate] at or over 6 in terms of pKi?
### Response FALSE

### Prompt Please tell me: is the molecule Cc1ccc(S(=O)(=O)NC(CCNC(=N)C(=N)N)C(=O)N2CCCCC2)cc1 (stereo not shown) at or over 6 in terms of pKi?
### Response FALSE

### Prompt Please tell me: is the molecule Cc1ccc(S(=O)(=O)NC(CCCNC(=N)C(=N)N)C(=O)N2CCCCC2)cc1 (stereo not shown) at or over 6 in terms of pKi?
### Response FALSE

### Prompt Please tell me: is the molecule CCC1CCN(C(=O)C(CCCNC(=N)C(=N)N)NS(=O)(=O)c2cccc3c(N(C)C)cccc23)CC1 (stereo not shown) [Compound 7d, trihydrochloride hydrate] at or over 6 in terms of pKi?
### Response TRUE

### Prompt Please tell me: is the molecule CC1CCN(C(=O)C(CCCNC(=N)C(=N)N)NS(=O)(=O)c2cccc3c(N(C)C)cccc23)CC1 (stereo not shown) [Compound 7c, trihydrochloride hydrate] at or over 6 in terms of pKi?
### Response TRUE

### Prompt Please tell me: is the molecule N=C(N)C(=N)NCCCC(NC(=O)CNS(=O)(=O)c1ccc2ccccc2c1)C(=O)N1CCCCC1 (stereo not shown) at or over 6 in terms of pKi?
### Response FALSE

### Prompt Please tell me: is the molecule CN(C)c1cccc2c(S(=O)(=O)NC(CCCNC(=N)C(=N)N)C(=O)N3CCCCCC3)cccc12 (stereo not shown) [Compound 7g, trihydrochloride hydrate] at or over 6 in terms of pKi?
### Response TRUE

### Prompt Please tell me: is the molecule N=C(N)C(=N)NCCC(NC(=O)CNS(=O)(=O)c1ccc2ccccc2c1)C(=O)N1CCCCC1 (stereo not shown) at or over 6 in terms of pKi?
### Response FALSE

### Prompt Please tell me: is the molecule Cc1ccc(S(=O)(=O)NC(CCCNC(=N)C(=N)N)C(=O)N2CCC(C)CC2)cc1 (stereo not shown) [Compound 7l, hydrochloride] at or over 6 in terms of pKi?
### Response FALSE

### Prompt Please tell me: is the molecule CN(C)c1cccc2c(S(=O)(=O)NC(CCCNC(=N)C(=N)N)C(=O)N3CCCCC3)cccc12 (stereo not shown) [Compound 7a, hydrochloride] at or over 6 in terms of pKi?
### Response FALSE

### Prompt Please tell me: is the molecule CC1CCN(C(=O)C(CCNC(=N)C(=N)N)NS(=O)(=O)c2cccc3c(N(C)C)cccc23)CC1 (stereo not shown) at or over 6 in terms of pKi?
### Response FALSE

### Prompt Please tell me: is the molecule CN(C)c1cccc2c(S(=O)(=O)NC(CCCNC(=N)C(=N)N)C(=O)N3CCOCC3)cccc12 (stereo not shown) [Compound 7e, trihydrochloride hydrate] at or over 6 in terms of pKi?
### Response FALSE
